Molecular target: SGK3 (human) (UniProt Q96BR1)
Sequence (Q96BR1 whole entry, looked up): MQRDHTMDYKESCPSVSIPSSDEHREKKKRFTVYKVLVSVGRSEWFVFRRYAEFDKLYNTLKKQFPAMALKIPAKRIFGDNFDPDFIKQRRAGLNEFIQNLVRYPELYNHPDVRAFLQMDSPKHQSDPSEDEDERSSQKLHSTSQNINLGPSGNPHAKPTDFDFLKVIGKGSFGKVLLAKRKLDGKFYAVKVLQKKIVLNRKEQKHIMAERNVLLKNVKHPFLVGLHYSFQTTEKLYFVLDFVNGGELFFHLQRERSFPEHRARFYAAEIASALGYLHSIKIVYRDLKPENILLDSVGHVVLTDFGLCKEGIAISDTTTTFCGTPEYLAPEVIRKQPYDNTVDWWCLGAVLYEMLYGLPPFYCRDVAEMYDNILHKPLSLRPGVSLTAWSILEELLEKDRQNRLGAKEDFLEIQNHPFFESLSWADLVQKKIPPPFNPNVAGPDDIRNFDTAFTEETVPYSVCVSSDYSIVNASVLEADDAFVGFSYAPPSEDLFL
Experiment: radiometric filter-binding kinase assay, Kinase HotSpot
Conditions: compound 0.5 µM; ATP 10 µM
METRIC_NAME: residual activity (%)
Record the value in %, omitting the unit from your answer.

Answered examples (10):
COMPOUND	UNIT	residual activity
O=C(O)/C=C/c1cc(Br)c(Br)c(Br)c1Br	%	85.7
O=C1NC(=O)C(c2c[nH]c3ccccc23)=C1c1c[nH]c2ccccc12	%	97.9
Cc1nc2cc3nc(-c4cccs4)cnc3cc2n1C	%	105
CCn1cnc2c(Nc3cccc(Cl)c3)nc(N[C@@H]3CCCC[C@@H]3N)nc21	%	94.3
CC(C)[C@H](CO)Nc1nc(Nc2cc(N)cc(Cl)c2)c2ncn(C(C)C)c2n1	%	99.9
O=C(CCCc1ccc(-c2ccccc2F)cc1)Nc1ccc(O)cc1	%	106
CC(C)c1nn(-c2c(Cl)cccc2Cl)c2nc(Cc3ccc(OCCO)cc3)nc(O)c12	%	92.6
COc1ccc(OC)c2c(=S)c3ccccc3[nH]c12	%	90.7
Cn1nc2c3c(cccc31)C(=O)c1ccccc1-2	%	107
O=C1Nc2ccccc2/C1=C1/Nc2ccccc2/C1=N\OCCC(O)CO (configuration not stated)	%	100

Fill blank: measured residual activity of the compound CC(=O)O/N=C1\C(=C2\C(=O)Nc3cc(Br)ccc32)Nc2ccccc21 is ____. 100

Fill blank: measured residual activity of the compound COc1cc2ncc(-c3ccccc3)nc2cc1OC is ____. 89.7

Fill blank: measured residual activity of the compound Cn1sc(=O)n(Cc2ccccc2)c1=O is ____. 102

Fill blank: measured residual activity of the compound COc1cc2ncnc(N3CCN(C(=O)Nc4ccc(Oc5ccccc5)cc4)CC3)c2cc1OC is ____. 97.6

Fill blank: measured residual activity of the compound O=C1NC(=O)C(c2cn(CCCO)c3ncccc23)=C1c1cnccn1 is ____. 124

Fill blank: measured residual activity of the compound COc1ccc(CNC(=O)Nc2ncc([N+](=O)[O-])s2)cc1 is ____. 96.9

Fill blank: measured residual activity of the compound O=C1NC(=O)/C(=C\c2ccc3nccnc3c2)S1 is ____. 94.3

====

Biological target: CSNK1D (human)
Test: radiometric filter-binding kinase assay, Kinase HotSpot
Details: compound 0.5 µM; ATP 10 µM
Mark Satisfied only when residual activity stays strictly below 90%. Values equal to the cut-off are Not satisfied.

Answered examples (2):
COMPOUND	DISCRETE_LABEL
Cn1nc2c3c(cccc31)C(=O)c1ccccc1-2	Satisfied
COc1cc2ncc(-c3ccccc3)nc2cc1OC	Not satisfied

A record lists Cn1cnc2cc3c(Nc4cccc(Br)c4)ncnc3cc21 . Is its residual activity below 90%? Not satisfied

A record lists O=C1Nc2ccccc2/C1=C1\Nc2ccccc2\C1=N/O . Is its residual activity below 90%? Satisfied

A record lists CCN(CC)CCCCN1c2ccccc2Oc2ccc(Cl)cc21 . Is its residual activity below 90%? Not satisfied

A record lists O=C(O)/C=C/c1cc(Br)c(Br)c(Br)c1Br . Is its residual activity below 90%? Satisfied

A record lists O=C(CCCc1ccc(-c2ccccc2F)cc1)Nc1ccc(O)cc1 . Is its residual activity below 90%? Not satisfied

A record lists CN([C@@H](Cc1ccc(OS(=O)(=O)c2cccc3cnccc23)cc1)C(=O)N1CCN(c2ccccc2)CC1)S(=O)(=O)c1cccc2cnccc12 . Is its residual activity below 90%? Not satisfied

A record lists O=C(Nc1cccc(Nc2cc(Nc3cccc(C(F)(F)F)c3)ncn2)c1)C1CC1 . Is its residual activity below 90%? Not satisfied

A record lists O=C1Nc2ccccc2/C1=C1/Nc2ccccc2/C1=N\OCCC(O)CO (stereo unspecified) . Is its residual activity below 90%? Satisfied

A record lists CC(C)c1nn(-c2c(Cl)cccc2Cl)c2nc(Cc3ccc(OCCO)cc3)nc(O)c12 . Is its residual activity below 90%? Not satisfied
